Values from paper PMC6364417

We begin with a simple list: items and their reported Cell viability in kinase inhibitor library screening, IGR37 Parental, 10μΜ.
# System: IGR37 cells (parental)
# protocolNotes: Kinase inhibitor library screening, PrestoBlue cell viability, 1 or 10 μM, 72 h
# testSettings: IGR37 Parental; 10μΜ; 72 h; in %
Give the value as a plain number.

Previously resolved entries follow.
CC(C)n1nc(-c2ccc3oc(N)nc3c2)c2c(N)ncnc21 [INK 128]
13.5
COC(=O)Nc1ccc(-c2nc(N3CCOCC3)c3cnn(C4CCN(Cc5cccnc5)CC4)c3n2)cc1 [WYE-687]
26.2
Cc1cc(C(C)Nc2ccccc2)c2nc(N3CCOCC3)cc(=O)n2c1 (centres unmarked) [TGX-221]
96.6

Any idea what Cell viability in kinase inhibitor library screening, IGR37 Parental, 10μΜ was measured for Cc1ccccc1-n1c(Cn2cnc3c(N)ncnc32)nc2cccc(C)c2c1=O [IC-87114] ?
99.7

Any idea what Cell viability in kinase inhibitor library screening, IGR37 Parental, 10μΜ was measured for CN1CCN(c2nc(C3=C(c4c[nH]c5ccccc45)C(=O)NC3=O)c3ccccc3n2)CC1 [Sotrastaurin (AEB071)] ?
95.3

Any idea what Cell viability in kinase inhibitor library screening, IGR37 Parental, 10μΜ was measured for COc1ccc(-c2ccc3ncc4c(c3c2)n(-c2ccc(N3CCNCC3)c(C(F)(F)F)c2)c(=O)n4C)cn1 [NVP-BGT226] ?
-1.8

Any idea what Cell viability in kinase inhibitor library screening, IGR37 Parental, 10μΜ was measured for Cn1c(=O)n(-c2ccc(C(C)(C)C#N)cc2)c2c3cc(-c4cnc5ccccc5c4)ccc3ncc21 [BEZ235 (NVP-BEZ235)] ?
12.4

Any idea what Cell viability in kinase inhibitor library screening, IGR37 Parental, 10μΜ was measured for Cc1ccccc1-n1c(Cn2ncc3c(N)ncnc32)nc2cccc(C)c2c1=O [PIK-293] ?
107.6

----------
# Tested on: A375-XP cells (Vemurafenib-resistant)
# protocolNotes: Kinase inhibitor library screening, PrestoBlue cell viability, 1 or 10 μM, 72 h
# testSettings: A375 XP; 10μΜ; 72 h
attributeMeasured: cell viability (kinase inhibitor library screening) (%)
Return type: number; implicit unit %.

Cn1cc(-c2ccc3nnc(C(F)(F)c4ccc5ncccc5c4)n3n2)cn1
100.0
CNC(=O)c1ccc(-c2cnc3ncc(Cc4ccc5ncccc5c4)n3n2)cc1F
103.3
CCn1cc(-c2ccnc3[nH]c(-c4cccc(CN(C)C)c4)cc23)c(-c2ccc(NC(=O)N(C)C)cc2)n1
37.9

Any idea what cell viability (kinase inhibitor library screening) was measured for "CCc1cccc(CC)c1NC(=O)N1Cc2n[nH]c(NC(=O)c3ccc(N4CCN(C)CC4)cc3)c2C1" ?
51.3

----------
We begin with a simple list: items and their reported cell viability, A375 XP, 10μΜ.
# Test system: A375-XP cells (Vemurafenib-resistant)
# protocolNotes: Kinase inhibitor library screening, PrestoBlue cell viability, 1 or 10 μM, 72 h
# testSettings: A375 XP, 10μΜ, 72 h; in %
Give the value as a plain number.

Previously resolved entries follow.
COc1cc2ncnc(Nc3cccc(Br)c3)c2cc1OC.Cl [PD153035 HCl]
97.5
CCC[C@H](NC(=O)/C(C#N)=C/c1cccc(Br)n1)c1ccccc1 [WP1130, reference compound]
0.429
CC(C)(C)c1cc(C=C(C#N)C#N)cc(Br)c1O
89.1
O=C(NOCC(O)CO)c1cc(Br)c(F)c(F)c1Nc1ccc(I)cc1F (centres unmarked)
11.2
C=CC(=O)Nc1cccc(Oc2nc(Nc3ccc(N4CCN(C)CC4)cc3)ncc2Cl)c1
20.1

Any idea what cell viability, A375 XP, 10μΜ was measured for CCOc1cc2ncc(C#N)c(Nc3ccc(F)c(Cl)c3)c2cc1NC(=O)/C=C/CN(C)C [Pelitinib (EKB-569)] ?
96.9

Any idea what cell viability, A375 XP, 10μΜ was measured for "C[C@@H]1CCN(C(=O)CC#N)C[C@@H]1N(C)c1ncnc2[nH]ccc12" ?
103.6

Any idea what cell viability, A375 XP, 10μΜ was measured for "CNC(=O)c1ccccc1Nc1nc(Nc2ccc(N3CCOCC3)cc2OC)ncc1Cl" ?
21.6

Any idea what cell viability, A375 XP, 10μΜ was measured for "Nc1cccc(-c2cc3c(Oc4cccc(O)c4)ncnc3[nH]2)c1" ?
67.4
